Every entry's value here was drawn from PubChem BioAssay (NCI).

# Tested on: OVCAR-5 ovarian
# METHOD NOTES: NCI-60 one-dose screen, 48 h
# SETTINGS: 10 µM unless noted
The panel holds about 83,000 compounds, 20% with a hit somewhere; the sample as a whole holds those more often. The source made the active and inactive calls. How the source made its calls: active means growth percent below 10; inactive means the rest.
Write down the outcome that applies. Available outcomes: active, inactive

See these solved cases before continuing.
* COc1ccc(-c2cs/c(=N\N=C\c3ccc(O)cc3O)n2/N=C/c2ccc(O)cc2O)cc1 | inactive
* Cc1cc(Cl)cc(CN(Cc2ccccc2)Cc2c(O)ccc3ccccc23)c1O | inactive
* COc1ccc2nc(-c3ccc(OC)c(OC)c3)cc(-c3nnc(SCC(=O)Nc4ccc(/C(C)=N\O)cc4)n3-c3ccccc3)c2c1 | inactive
* CC(C)(C#N)c1cc(F)cc(C(=O)Nc2cc(Nc3ncccc3-c3ncnc4nc[nH]c34)ccc2F)c1 | inactive
* C#C[C@@]1(O)[C@@H](CO)O[C@@H](n2cc(-c3ccco3)c3c(N)ncnc32)[C@@H]1O | inactive
* O=C1Nc2ccc(Cl)cc2/C1=N/c1nc(-c2ccc(Cl)cc2)cs1 | inactive
* COCCOC(=O)COc1ccc(OC)cc1 | inactive
* c1ccc(-c2n(Cc3ccc4ccccc4n3)cc[n+]2Cc2ccc3ccccc3c2)cc1 | inactive
* C=CCn1c(CN2CCN(c3cc4c(cc3F)c(=O)c(C(=O)O)cn4C3CC3)CC2)n[nH]c1=S | inactive
* CC(C)NS(=O)(=O)c1cccc(-c2ccc3c4c(n(CCCN(C)C)c(=O)c3c2)-c2ccccc2C4=O)c1 | inactive

Status in this test for Cc1nc2sc(C(=O)Nc3ccccc3Cl)c(N)c2cc1C(C)O (configuration not stated) ?
inactive

# iterate: COc1ccc2c(c1)Oc1nc(N)c(C#N)c(N)c1C2Sc1ccc(O)cc1 (configuration not stated)
inactive

And the next one, C/C(=N/Nc1nc2ccccc2n1C)c1ccccn1 ?
inactive

How about C=C(C)[C@@H]1CC[C@]2(C(=O)O)CC[C@]3(C)[C@H](CC[C@@H]4[C@@]5(C)C[C@@H](CC#Cc6ccccc6)C(=O)C(C)(C)[C@@H]5CC[C@]43C)[C@@H]12 ?
inactive

Same again, this time with O=c1[nH]c2ccccc2cc1-c1nc2ccncc2[nH]1
inactive

Now the same for COc1cccc2c1-c1ccccc1C2=O
inactive

Field entry: OCCNc1nc(NCCO)nc(Nc2ccc(C3=NN(c4cc(Cl)cc(Cl)c4)C(c4ccccc4)C3)cc2)n1 (configuration not stated)
inactive
